I'd appreciate it if you could supply pKi values for the items below.
molecular target: Voltage-gated inwardly rectifying potassium channel KCNH2 (Homo sapiens, UniProt Q12809)
Sequence (Q12809 whole entry): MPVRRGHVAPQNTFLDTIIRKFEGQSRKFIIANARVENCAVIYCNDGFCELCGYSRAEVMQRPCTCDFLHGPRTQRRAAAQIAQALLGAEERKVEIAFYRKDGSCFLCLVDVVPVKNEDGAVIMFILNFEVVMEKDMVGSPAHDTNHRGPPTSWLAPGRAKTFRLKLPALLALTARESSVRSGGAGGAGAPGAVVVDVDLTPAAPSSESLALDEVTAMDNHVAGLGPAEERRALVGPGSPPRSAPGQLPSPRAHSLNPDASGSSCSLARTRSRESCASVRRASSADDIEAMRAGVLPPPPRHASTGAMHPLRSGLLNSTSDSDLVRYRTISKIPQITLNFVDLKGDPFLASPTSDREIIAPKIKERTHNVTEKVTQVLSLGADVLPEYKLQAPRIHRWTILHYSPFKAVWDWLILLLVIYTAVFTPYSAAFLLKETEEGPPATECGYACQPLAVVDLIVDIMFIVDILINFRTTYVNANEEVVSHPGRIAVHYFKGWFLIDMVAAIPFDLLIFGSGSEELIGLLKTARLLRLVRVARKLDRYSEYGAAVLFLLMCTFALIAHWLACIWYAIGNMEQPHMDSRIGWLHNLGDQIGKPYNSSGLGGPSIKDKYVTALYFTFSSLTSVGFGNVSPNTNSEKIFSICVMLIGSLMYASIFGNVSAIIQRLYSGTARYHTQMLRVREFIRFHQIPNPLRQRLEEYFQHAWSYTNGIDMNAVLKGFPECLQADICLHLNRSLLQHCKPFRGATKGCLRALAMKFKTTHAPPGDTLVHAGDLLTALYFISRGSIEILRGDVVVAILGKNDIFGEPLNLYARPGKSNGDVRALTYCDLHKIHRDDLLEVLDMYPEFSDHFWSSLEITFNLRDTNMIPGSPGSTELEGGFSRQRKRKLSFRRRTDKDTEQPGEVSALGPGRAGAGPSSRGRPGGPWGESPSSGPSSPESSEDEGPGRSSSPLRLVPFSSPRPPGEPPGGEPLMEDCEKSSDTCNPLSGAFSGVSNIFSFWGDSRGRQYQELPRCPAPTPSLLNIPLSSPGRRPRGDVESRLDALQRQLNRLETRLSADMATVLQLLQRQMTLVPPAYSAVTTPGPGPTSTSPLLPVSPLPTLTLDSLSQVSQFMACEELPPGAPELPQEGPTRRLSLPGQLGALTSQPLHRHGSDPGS
One number for each entry, as −log10 of the molar value.

{"columns": ["compound", "pKi"],
 "data": [
  ["CN1CCCC(c2nc3ccccc3n2CC2CCCO2)C1 (stereo unspecified)", 6.20],
  ["COc1ccc(Cn2c(C3CCCN(C(C)C)C3)nc3ccccc32)cc1 (stereo unspecified)", 5.58],
  ["Fc1ccc(Cn2c(C3CCCN(C4CCCCC4)C3)nc3ccccc32)cc1 (stereo unspecified)", 6.03]
]}

Count: 2. Required value per item: pKi.
1. Cc1csc(Cn2c(C3CCCN(C4CCCCC4)C3)nc3ccccc32)n1 (stereo unspecified)
2. CC(C)N1CCCC(c2nc3ccccc3n2Cc2ccc(F)cc2)C1 (stereo unspecified)

5.93
5.86

---

experiment: Solubility in 0.15 M KCl buffer at pH 7.4 by potentiometric method; assay type: physicochemical
observation.type: solubility

Field request: solubility | item: "Cc1cnn(C2CCN(c3nc4ccccc4n3Cc3ccc(F)cc3)CC2)c1" < 10 µg/mL

---

biological target: Voltage-gated inwardly rectifying potassium channel KCNH2 (Homo sapiens); assay: Inhibition of human ERG channel by patch clamp assay
observation.type: IC50 (nM)
Numbers only, in nM.

What does the record list as IC50 for "CCOCCn1c([C@@H]2CCCN(C3CCOCC3)C2)nc2ccccc21" ? 2100

---

Consider the following Ki values measured on Voltage-gated inwardly rectifying potassium channel KCNH2 (Homo sapiens, UniProt Q12809).

Example cases with answers are listed next.
{"columns": ["molecule", "target.of.assay", "observation.type", "observed.measurement"],
 "data": [
  ["CN1CCC[C@H](c2nc3ccccc3n2Cc2ccccn2)C1", "Voltage-gated inwardly rectifying potassium channel KCNH2 (Homo sapiens, UniProt Q12809)", "Ki", "> 10 µM"],
  ["COc1ccc(Cn2c(C3CCCN(C)C3)nc3ccccc32)cc1 (stereo not given)", "Voltage-gated inwardly rectifying potassium channel KCNH2 (Homo sapiens, UniProt Q12809)", "Ki", "> 5 µM"],
  ["CN1CCC[C@@H](c2nc3ccccc3n2Cc2ccccn2)C1", "Voltage-gated inwardly rectifying potassium channel KCNH2 (Homo sapiens, UniProt Q12809)", "Ki", "10.3 µM"]
]}

Please look at the items below and tell me Ki for each one, in order.
1. COc1ccc(Cn2c(C3CCCN(C4CCCCC4)C3)nc3ccccc32)cc1 (stereo not given)
2. CCOCCn1c(C2CCCN(C3CCCCC3)C2)nc2ccccc21 (stereo not given)

1.84 µM
> 10 µM

---

Recorded below: Ki, system UniProtKB Q12809.

{"columns": ["compound", "target.of.assay", "observed.measurement"],
 "data": [
  ["CCOCCn1c([C@@H]2CCCN(C3CCOCC3)C2)nc2ccccc21", "UniProtKB Q12809", "> 3 µM"],
  ["Cc1csc(Cn2c(C3CCCN(C)C3)nc3ccccc32)n1 (stereo unspecified)", "UniProtKB Q12809", "> 10 µM"],
  ["CCOCCn1c(C2CCCN(C3CCOCC3)C2)nc2ccccc21 (stereo unspecified)", "UniProtKB Q12809", "> 3 µM"]
]}

Give one value of Ki per listed compound.
1. COc1ccc(Cn2c(C3CCCN(C4CCOCC4)C3)nc3ccccc32)cc1 (stereo unspecified)
2. CN1CCCC(c2nc3ccccc3n2Cc2ccccn2)C1 (stereo unspecified)
3. Cc1csc(Cn2c(C3CCCN(C4CCOCC4)C3)nc3ccccc32)n1 (stereo unspecified)

> 10 µM
> 10 µM
> 3 µM
